Hello, the source for this data is PubChem BioAssay, in case you need it.

Test system: Wnt5a (protein binding on small-molecule microarray)
Experiment: Wnt5a binders on small-molecule microarray, primary screen, biophysical, 635/667 nm fluorescence (AID 1142);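 also: fluorescence read at 667 nm with signal to noise per printed feature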
Conditions: 635 nm fluorescence, higher = more signal
Measure: composite z-score
// return a plain number; no unit text

Per the record, CC(C)NC(=O)[C@@H]1c2ccccc2C(=O)N(Cc2ccccc2)[C@H]1c1ccc(CO)cc1 has composite z-score of -0.0365

Per the record, C=CCNC(=O)[C@@H]1[C@H]2C(=O)O[C@H](c3ccccc3)[C@H](c3ccccc3)N2[C@H](c2ccc(O)cc2)[C@@]12C(=O)N(C(=O)OCCOC)c1ccccc12 has composite z-score of 0.0795

Per the record, O=C(NCc1ccccc1)[C@]1(CCS(=O)(=O)c2ccccc2)N=C(c2ccc(OCCCO)cc2)O[C@@H]1c1ccccc1 has composite z-score of 0.721

Per the record, O=C1O[C@H](c2ccccc2)[C@H](c2ccccc2)N2[C@H]1[C@@H](C(=O)O)[C@]1(C(=O)Nc3ccc(C#CC4=CCCCC4)cc31)[C@H]2c1ccc(OCCO)cc1 has composite z-score of 1.04

Per the record, [N-]=[N+]=NCc1ccccc1C[C@]1(C(=O)O)N=C(c2ccc(OCCCO)cc2)O[C@H]1c1ccccc1CN=[N+]=[N-] has composite z-score of -0.0602

Per the record, C[C@]1(C(=O)NCc2ccccc2)c2ccccc2C(=O)N(Cc2cc(F)cc(C(F)(F)F)c2)[C@H]1c1ccc(CO)cc1 has composite z-score of -0.0261

* * *

Assay: small-molecule microarray binders of probe aLefty2, primary screen, biochemical, biotinylated probe, 635/667 nm fluorescence (AID 1094);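 also: score merges spot fluorescence near 667 nm with spot signal-to-noise ratio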
Conditions: higher = more signal
Measure: composite z-score
// return a plain number; no unit text

Check out these entries, answers already filled in.
COc1ccc(C#Cc2ccc3c(c2)[C@]2(C(=O)N3)[C@H](C(=O)NC[C@H](O)c3ccccc3)[C@H]3C(=O)O[C@H](c4ccccc4)[C@H](c4ccccc4)N3[C@@H]2c2ccccc2OCCO)cc1 :: 0.0179
Cc1c(NC(=O)CC#N)c(=O)n(-c2ccccc2)n1C :: -0.225
CCCCCN1CC=CC23O[C@@H]4/C=C\CCCOC(=O)C4[C@H]2C(=O)N(CCCCCCO)[C@@H]3C1=O (some centres undefined) :: -0.147

Then this molecule:
Per the record, [N-]=[N+]=NCc1ccccc1C[C@]1(C(=O)NCCN2CCOCC2)N=C(c2ccc(OCCCO)cc2)O[C@H]1c1ccccc1N=[N+]=[N-] has composite z-score of 0.149

* * *

Test: binders of probe aFGF2 on microarray, primary screen, stem cell growth factor project, biochemical, small-molecule microarray, fluorescence 635/667 (AID 1067);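 also: measures binding of biotinylated aFGF2 protein to printed compounds on slides; z-score merges feature fluorescence and signal-to-noise across triplicate slides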
Details: higher = more signal
Measure: composite z-score
// return a plain number; no unit text

Per the record, CC(=CC1CCCCC1)[C@@H](NC(=O)c1ccc(C(F)(F)F)cc1)c1ccc(-c2ccccc2)cc1 has composite z-score of 0.0083

Per the record, NCCCCCNC(=O)[C@H]1C[C@H]2C(=O)NCC(=O)N2[C@H]1c1cccc(OCCO)c1 has composite z-score of -0.0337

Per the record, O=C(OCCF)C1=CCC(c2cccc(Cl)c2)O1 (stereo not given) has composite z-score of -0.0907

Per the record, C=C(COC)C(=O)CC[C@@H](OC(=O)c1cccnc1)c1ccc(CO)o1 has composite z-score of -0.085

Per the record, COc1ccc(C#Cc2ccc3c(c2)[C@]2(C(=O)N3)[C@H](C(=O)NC[C@H](O)c3ccccc3)[C@H]3C(=O)O[C@H](c4ccccc4)[C@H](c4ccccc4)N3[C@@H]2c2ccccc2OCCO)cc1 has composite z-score of 0.0128

Per the record, COc1ccc([Si](C)(C)[C@H]2[C@H](CCn3cc([C@H](O)c4ccccc4)nn3)O[C@@]3(C(=O)N(Cc4cccc(N5CCC5=O)c4)c4ccccc43)[C@@H]2C)cc1 has composite z-score of -0.0894

Per the record, CC(C)N1CC=CC23O[C@@H]4C=CCOC(=O)[C@@H]4[C@H]2C(=O)N(CCO)[C@@H]3C1=O (stereo not given in full) has composite z-score of -0.187

Per the record, O=C/C=C/c1ccc(Cl)cc1 has composite z-score of 0.0086

Per the record, O=C1O[C@H](c2ccccc2)[C@H](c2ccccc2)N2[C@H]1[C@@H](C(=O)Nc1nc3ccccc3s1)[C@]1(C(=O)Nc3ccccc31)[C@H]2c1ccc(O)cc1 has composite z-score of -0.0516

Per the record, O=C(O)[C@@]1(Cc2ccccc2)N=C(c2ccc(OCCCO)cc2)O[C@H]1c1ccccc1 has composite z-score of -0.0819

Per the record, CC(C)(C)N1CC=CC23O[C@@H]4C=CCOC(=O)[C@@H]4[C@H]2C(=O)N(CCCCCO)[C@@H]3C1=O (stereo not given in full) has composite z-score of -0.159

Per the record, COCCOC(=O)N1C(=O)[C@@]2(c3cc(C#CCNC(N)=O)ccc31)[C@H](c1ccc(O)cc1)N1[C@H](c3ccccc3)[C@H](c3ccccc3)OC(=O)[C@H]1[C@@H]2C(=O)Nc1nc2ccccc2s1 has composite z-score of -0.0736

Per the record, Cc1c(NC(=O)CC#N)c(=O)n(-c2ccccc2)n1C has composite z-score of -0.0996

Per the record, CC(=O)NCCCC[C@@H]1NC(=O)[C@@H]2C[C@H](C(=O)NCCCCN(C)C)[C@H](c3ccc(O)cc3)N2C1=O has composite z-score of -0.168

Per the record, [N-]=[N+]=NCc1ccccc1C[C@@]1(C(=O)N2CCOCC2)N=C(c2ccc(OCCCO)cc2)O[C@@H]1c1ccccc1CN=[N+]=[N-] has composite z-score of 0.266

Per the record, CCCCC(O)C1C=CC2C(=O)N(C3CCCCC3)C(=O)C2N1Nc1ccc(OC)cc1 (stereo not given) has composite z-score of -0.0056
